test system: Pseudomonas aeruginosa; assay: Antibacterial activity against VIM-1 producing Pseudomonas aeruginosa clone A2 isolate NA-14X-32 by Etest method; format: functional
Some molecules, each annotated with its measured MIC.

Some entries whose results are on file:
C[C@@H](O)[C@H]1C(=O)N2C(C(=O)O)=C(SCCNC=N)C[C@H]12 [IMIPENEM ANHYDROUS]	> 32 µg/mL
NCC[C@H](O)C(=O)N[C@@H]1C[C@H](N)[C@@H](O[C@H]2O[C@H](CN)[C@@H](O)[C@H](O)[C@H]2O)[C@H](O)[C@H]1O[C@H]1O[C@H](CO)[C@@H](O)[C@H](N)[C@H]1O [AMIKACIN]	24 µg/mL

Please examine the following record next.
## Task Recorded MIC for CC(C)(O/N=C(\C(=O)N[C@@H]1C(=O)N2C(C(=O)[O-])=C(C[n+]3ccccc3)CS[C@H]12)c1csc(N)n1)C(=O)O [CEFTAZIDIME] with Pseudomonas aeruginosa, please?
## Result > 128 µg/mL
